Test system: human breast MCF-7 cancer cell line
Protocol summary: In vitro cytotoxic screening (MTT assay), MCF-7
Format: cell-based
Assay setup: 12.5 µM; average ± standard deviation
Method: Using human breast MCF-7, colorectal HCT-116, and prostate PC-3 cancer cell lines, preliminary antiproliferative effectiveness of cyclopenta[4,5]thieno[2,3-d][1,2,4]triazolo[1,5-a]pyrimidin-9(6H)-ones 4–16 was established in vitro through MTT assay at different concentrations (100, 50, 25 and 12.5 μM) (Figure 2). […]
Observable: Percentage cytotoxicity on MCF-7

# Compound, Val
measured = [
    ("O=c1c2c3c(sc2nc2[nH]c(-c4ccc(Br)cc4)nn12)CCC3 [Compound 10b]", "30.3±4.3%"),
    ("Cc1nn2c(=O)c3c4c(sc3nc2[nH]1)CCC4 [Compound 5]", "0.0±0.005%"),
    ("O=c1c2c3c(sc2nc2nc([C@H](O)[C@@H](O)[C@@H](O)[C@H](O)CO)[nH]n12)CCC3 [Compound 11b]", "0.0±0.005%"),
    ("CC(=O)C/C(C)=N/n1c(N[C@@H]2O[C@H](COC(C)=O)[C@@H](OC(C)=O)[C@H](OC(C)=O)[C@H]2OC(C)=O)nc2sc3c(c2c1=O)CCC3 [Compound 15]", "0.0±0.005%"),
]

---

Test system: human colorectal HCT-116 cancer cell line
Protocol summary: In vitro cytotoxic screening (MTT assay), HCT-116
Assay type: cell-based
Assay setup: 25 µM; average ± standard deviation

# Compound, Test target, Percentage cytotoxicity on HCT-116 [%]
measured = [
    ("O=c1c2c3c(sc2nc2nc([C@H](O)[C@@H](O)[C@@H](O)[C@H](O)CO)[nH]n12)CCC3 [Compound 11b]", "human colorectal HCT-116 cancer cell line", 16.1),
    ("O=c1c2c3c(sc2nc2[nH]c(-c4ccc(Cl)cc4)nn12)CCC3 [Compound 10a]", "human colorectal HCT-116 cancer cell line", 17.8),
    ("CC(=O)OC[C@@H](OC(C)=O)[C@H](OC(C)=O)[C@H](OC(C)=O)[C@@H](OC(C)=O)c1nc2nc3sc4c(c3c(=O)n2[nH]1)CCC4 [Compound 12b]", "human colorectal HCT-116 cancer cell line", 0.0),
    ("CC(=O)OC[C@H]1O[C@@H](n2cnn3c(=O)c4c5c(sc4nc23)CCC5)[C@H](OC(C)=O)[C@@H](OC(C)=O)[C@@H]1OC(C)=O", "human colorectal HCT-116 cancer cell line", 0.0),
    ("O=c1c2c3c(sc2nc2nc([C@@H](O)[C@@H](O)[C@H](O)[C@H](O)CO)[nH]n12)CCC3 [Compound 11c]", "human colorectal HCT-116 cancer cell line", 19.5),
    ("CC(=O)C/C(C)=N/n1c(N[C@@H]2O[C@H](COC(C)=O)[C@@H](OC(C)=O)[C@H](OC(C)=O)[C@H]2OC(C)=O)nc2sc3c(c2c1=O)CCC3", "human colorectal HCT-116 cancer cell line", 0.0),
    ("CC(=O)OC[C@@H](OC(C)=O)[C@@H](OC(C)=O)[C@H](OC(C)=O)c1nc2nc3sc4c(c3c(=O)n2[nH]1)CCC4 [Compound 12d]", "human colorectal HCT-116 cancer cell line", 0.0),
    ("COc1ccc(-c2nn3c(=O)c4c5c(sc4nc3[nH]2)CCC5)cc1 [Compound 10d]", "human colorectal HCT-116 cancer cell line", 0.0),
    ("O=c1c2c3c(sc2nc2[nH]c(-c4ccc(Br)cc4)nn12)CCC3 [Compound 10b]", "human colorectal HCT-116 cancer cell line", 14.3),
    ("CC(=O)C/C(C)=N/n1c(N)nc2sc3c(c2c1=O)CCC3", "human colorectal HCT-116 cancer cell line", 0.0),
    ("O=c1c2c3c(sc2nc2[nH]c(-c4c5ccccc5cc5ccccc45)nn12)CCC3 [Compound 10e]", "human colorectal HCT-116 cancer cell line", 19.0),
    ("O=c1c2c3c(sc2nc2nc([C@H](O)[C@@H](O)[C@H](O)[C@H](O)CO)[nH]n12)CCC3 [Compound 11a]", "human colorectal HCT-116 cancer cell line", 12.94),
    ("COc1ccc(-c2nn3c(=O)c4c5c(sc4nc3n2[C@@H]2O[C@H](COC(C)=O)[C@@H](OC(C)=O)[C@H](OC(C)=O)[C@H]2OC(C)=O)CCC5)cc1", "human colorectal HCT-116 cancer cell line", 0.0),
    ("Cc1nn2c(=O)c3c4c(sc3nc2[nH]1)CCC4", "human colorectal HCT-116 cancer cell line", 0.0),
]
